Molecular target: HLA-A*31:01
Experiment: IEDB peptide-MHC binding, purified MHC/competitive/fluorescence; filed as Kd, often an IC50 or EC50 that approximates it; bounds were set here for any values at or beyond the usual limits of such assays
Details: source organism: Pseudomonas putida F1
EXPERIMENTAL_READOUT: pKd
A value of pKd is the negative decimal logarithm of a concentration given in moles per litre.

# input Given the sequence SQIRRFNLR , what is its reported pKd?
# output 8.99

###

Molecular target: HLA-B*46:01
Test: IEDB peptide-MHC binding, purified MHC/direct/fluorescence; filed as Kd, often an IC50 or EC50 that approximates it; bounds were set here for any values at or beyond the usual limits of such assays
Details: source organism: Influenza A virus (A/camel/Mongolia/1982(H1N1))
pKd: −log10 of the molar value.
EXPERIMENTAL_READOUT: pKd

# input Param item = KFFPSSSYR ; retrieve measured pKd.
# output ≤ 4.70

###

Target: HLA-B*48:01
Assay: IEDB peptide-MHC binding, purified MHC/direct/fluorescence; filed as Kd, often an IC50 or EC50 that approximates it; bounds were set here for any values at or beyond the usual limits of such assays
Settings: source organism: Rickettsia prowazekii
pKd: −log10 of the molar value.
EXPERIMENTAL_READOUT: pKd

# input May I ask what pKd has been recorded for RRNRKALWL ?
# output ≤ 4.70

###

Target: HLA-A*31:01
Test: IEDB peptide-MHC binding, purified MHC/competitive/radioactivity; filed as Kd, often an IC50 or EC50 that approximates it; bounds were set here for any values at or beyond the usual limits of such assays
Conditions: source organism: SARS coronavirus Tor2
For each record, check the reported Kd: if it is below 500 nM write satisfied, else write not satisfied.

1. ILCFTIKRK :: not satisfied
2. SLQVCVQTVR :: satisfied
3. TQLYLGGMSY :: not satisfied
4. QTMLFTMLRK :: satisfied

# input Is Kd of FFASFYYIWK strictly below 500 nM?
# output not satisfied

# input I'd appreciate it if you could check whether DQAMTQMYK has Kd smaller than 500 nM.
# output not satisfied

###

Molecular target: HLA-A*31:01
Assay: IEDB peptide-MHC binding, purified MHC/competitive/radioactivity; filed as Kd, often an IC50 or EC50 that approximates it; bounds were set here for any values at or beyond the usual limits of such assays
Details: source organism: Dengue virus 2 Jamaica/1409/1983
Below, each entry is listed alongside its reported pKd.
In plain terms, pKd is the concentration in mol/L turned into minus its base-10 logarithm.

Solved entries (count: 2):
1. KKKTPRMCTR :: 6.11
2. RSTPFNMLKR :: 5.86

Let's switch to this sequence now.
# input I'd like to know its pKd. The sequence in question is RMCTREEFTR
# output 8.24

###

Target: HLA-B*18:01
Assay: IEDB peptide-MHC binding, purified MHC/competitive/fluorescence; filed as Kd, often an IC50 or EC50 that approximates it; bounds were set here for any values at or beyond the usual limits of such assays
Settings: source organism: Burkholderia pseudomallei K96243
EXPERIMENTAL_READOUT: Kd (nM)
Reply with just the number (in nM).

# input sequence: SELTVSPPD ; wanted: its Kd
# output 845

###

sequences and their reported Kd
Molecular target: HLA-A*02:01
Test: IEDB peptide-MHC binding, purified MHC/direct/fluorescence; filed as Kd, often an IC50 or EC50 that approximates it; bounds were set here for any values at or beyond the usual limits of such assays
Conditions: source organism: Influenza A virus (A/camel/Mongolia/1982(H1N1))

1) EKFFPSSSY :: ≥ 20 µM

Turning now to a further record.
# input Entry KFFPSSSYR , system HLA-A*02:01: what Kd was measured?
# output ≥ 20 µM
